Source of measurements: ChEMBL document CHEMBL2321812

Assay: Half life in male ICR mouse at 5 mg/kg, ip
Type: ADME, organism-based
Design: dose 5 mg/kg, route intraperitoneal
Settings: in vivo
observed_property: half-life (min)
One number for each entry, in min.

Challenge: Would you mind telling me what half-life value was observed for `CS(=O)(=O)c1ccc(-c2nnc(/C=C/c3nnc(-c4ccc(C#N)cc4)o3)n2-c2ccccc2Cl)nc1` ?
Response given: 173

====

Test: Mean residence time (0 to infinity) in female ICR mouse at 1 mg/kg, iv
Format: ADME, organism-based
Set-up: dose 1 mg/kg, route intravenous
Settings: in vivo
observed_property: MRT inf (h)
Answers are plain numbers, in h.

Challenge: I am curious: what MRT inf value has been reported for `CS(=O)(=O)c1ccc(-c2nnc(/C=C/c3nnc(-c4ccc(C#N)cc4)o3)n2-c2ccccc2Cl)nc1` ?
Response given: 4.8
